Cited source: ChEMBL document CHEMBL3885861

organism: Rattus norvegicus; assay: Open TG-GATES - Regimen: Single; format: toxicity, organism-based, Sprague-Dawley; parameters: regimen Single, gender Male, age 6 weeks; conditions: in vivo, po, 0 mg/kg, 24 h, tissue Blood, route gavage, dose level Control
observedProperty: MCHC (%)
Answer with a number only, understood to be in %.

O=C1NC(=O)C(c2ccccc2)(c2ccccc2)N1 [PHENYTOIN] | 33.7
Cn1cnc([N+](=O)[O-])c1Sc1ncnc2nc[nH]c12 [AZATHIOPRINE] | 34.1
CNCCC(Oc1ccc(C(F)(F)F)cc1)c1ccccc1.Cl (stereo unspecified) [FLUOXETINE HYDROCHLORIDE] | 32.7

[in] Reported MCHC for CS(=O)(=O)Nc1ccc([N+](=O)[O-])cc1Oc1ccccc1 [NIMESULIDE] : what is it?
[out] 33.7

[in] Reported MCHC for O=C1CN(/N=C/c2ccc(-c3ccc([N+](=O)[O-])cc3)o2)C(O)=N1 [DANTROLENE] : what is it?
[out] 33.7

[in] Reported MCHC for Cc1cnc(NC(=O)C2=C(O)c3ccccc3S(=O)(=O)N2C)s1 [MELOXICAM] : what is it?
[out] 33.9

[in] Reported MCHC for C=CCO [ALLYL ALCOHOL] : what is it?
[out] 34.1

[in] Reported MCHC for COc1ccc(Cl)cc1C(=O)NCCc1ccc(S(=O)(=O)NC(=O)NC2CCCCC2)cc1 [GLYBURIDE] : what is it?
[out] 34.7

[in] Reported MCHC for COc1ccc(O)c(C(C)(C)C)c1.COc1ccc(O)cc1C(C)(C)C [BUTYLATED HYDROXYANISOLE] : what is it?
[out] 34.2

[in] Reported MCHC for Cc1cccc(Nc2cc(Cl)nc(SCC(=O)O)n2)c1C [PIRINIXIC ACID] : what is it?
[out] 34.2

[in] Reported MCHC for S=C=Nc1cccc2ccccc12 [1-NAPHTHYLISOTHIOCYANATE] : what is it?
[out] 35.6

###

organism: Rattus norvegicus; assay: Open TG-GATES - Regimen: Daily Repeat; assay type: toxicity, organism-based, Sprague-Dawley; design: regimen Daily Repeat, gender Male, age 6 weeks; details: in vivo, po, 0 mg/kg, 72 h, tissue Plasma, route gavage, dose level Control, time 3 day
Field: label. Allowed values: True (TG < 80 mg/dL) or False (TG >= 80 mg/dL).

[in] Below 80 mg/dL on TG? Entry C=CCO
[out] False

[in] Below 80 mg/dL on TG? Entry O=C1CN(/N=C/c2ccc(-c3ccc([N+](=O)[O-])cc3)o2)C(O)=N1
[out] False

[in] Below 80 mg/dL on TG? Entry CS(=O)(=O)Nc1ccc([N+](=O)[O-])cc1Oc1ccccc1 [NIMESULIDE]
[out] True

[in] Below 80 mg/dL on TG? Entry Cc1cccc(Nc2cc(Cl)nc(SCC(=O)O)n2)c1C
[out] False

[in] Below 80 mg/dL on TG? Entry Cn1cnc([N+](=O)[O-])c1Sc1ncnc2nc[nH]c12
[out] False

[in] Below 80 mg/dL on TG? Entry O=C1NC(=O)C(c2ccccc2)(c2ccccc2)N1
[out] False

###

molecules and their reported A/G
species: Rattus norvegicus; assay: Open TG-GATES - Regimen: Daily Repeat; type: toxicity, organism-based, Sprague-Dawley; parameters: regimen Daily Repeat, gender Male, age 6 weeks; settings: in vivo, po, 0 mg/kg, 72 h, tissue Plasma, route gavage, dose level Control, time 3 day
Form rule: numeric answer, no unit written next to it.

// worked examples, A/G included
Cn1cnc([N+](=O)[O-])c1Sc1ncnc2nc[nH]c12 | 1.2
COc1ccc(O)c(C(C)(C)C)c1.COc1ccc(O)cc1C(C)(C)C [BUTYLATED HYDROXYANISOLE] | 0.8
C=CCO | 1.6

Now, please, on to the next molecule.
[in] Reported A/G for COc1ccc(Cl)cc1C(=O)NCCc1ccc(S(=O)(=O)NC(=O)NC2CCCCC2)cc1 [GLYBURIDE] : what is it?
[out] 1.7

###

compounds and their reported TERMINAL_BW
species: Rattus norvegicus; assay: Open TG-GATES - Regimen: Single; type: toxicity, organism-based, Sprague-Dawley; set-up: regimen Single, gender Male, age 6 weeks; conditions: in vivo, po, 0 mg/kg, 9 h, route gavage, dose level Control
Answer with a number only, understood to be in g.

COc1ccc(Cl)cc1C(=O)NCCc1ccc(S(=O)(=O)NC(=O)NC2CCCCC2)cc1 [GLYBURIDE] | 213.3
CS(=O)(=O)Nc1ccc([N+](=O)[O-])cc1Oc1ccccc1 [NIMESULIDE] | 196.3
O=C1NC(=O)C(c2ccccc2)(c2ccccc2)N1 [PHENYTOIN] | 205.9
COc1ccc(O)c(C(C)(C)C)c1.COc1ccc(O)cc1C(C)(C)C [BUTYLATED HYDROXYANISOLE] | 203.6
C=CCO [ALLYL ALCOHOL] | 217.9
Cn1cnc([N+](=O)[O-])c1Sc1ncnc2nc[nH]c12 [AZATHIOPRINE] | 190.4
O=C1CN(/N=C/c2ccc(-c3ccc([N+](=O)[O-])cc3)o2)C(O)=N1 [DANTROLENE] | 195.9
CNCCC(Oc1ccc(C(F)(F)F)cc1)c1ccccc1.Cl (stereo unspecified) [FLUOXETINE HYDROCHLORIDE] | 216.1

[in] Reported TERMINAL_BW for S=C=Nc1cccc2ccccc12 [1-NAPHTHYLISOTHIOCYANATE] : what is it?
[out] 216.9

[in] Reported TERMINAL_BW for Cc1cnc(NC(=O)C2=C(O)c3ccccc3S(=O)(=O)N2C)s1 [MELOXICAM] : what is it?
[out] 222.3

[in] Reported TERMINAL_BW for Cc1cccc(Nc2cc(Cl)nc(SCC(=O)O)n2)c1C [PIRINIXIC ACID] : what is it?
[out] 205.2

###

molecules and their reported Fbg
species: Rattus norvegicus; experiment: Open TG-GATES - Regimen: Daily Repeat; type: toxicity, organism-based, Sprague-Dawley; design: regimen Daily Repeat, gender Male, age 6 weeks; conditions: in vivo, po, 0 mg/kg, […], tissue Blood, route gavage, dose level Control, time 14 day
Dear colleague, please send the value followed by its unit.

COc1ccc(Cl)cc1C(=O)NCCc1ccc(S(=O)(=O)NC(=O)NC2CCCCC2)cc1 [GLYBURIDE] | 223.6 mg/dL
O=C1NC(=O)C(c2ccccc2)(c2ccccc2)N1 | 290.6 mg/dL
Cc1cccc(Nc2cc(Cl)nc(SCC(=O)O)n2)c1C | 324.2 mg/dL
Cc1cnc(NC(=O)C2=C(O)c3ccccc3S(=O)(=O)N2C)s1 | 226.8 mg/dL
O=P1(N(CCCl)CCCl)NCCCO1 (stereo unspecified) [CYCLOPHOSPHAMIDE ANHYDROUS] | 307.8 mg/dL

Now, please, on to the next molecule.
[in] Reported Fbg for C=CCO : what is it?
[out] 229 mg/dL

###

species: Rattus norvegicus; assay: Open TG-GATES - Regimen: Daily Repeat; assay type: toxicity, organism-based, Sprague-Dawley; design: regimen Daily Repeat, gender Male, age 6 weeks; details: in vivo, po, 0 mg/kg, […], tissue Plasma, route gavage, dose level Control, time 28 day
observedProperty: TP (g/dL)
Answer with a number only, understood to be in g/dL.

// worked examples, TP included
Cc1cnc(NC(=O)C2=C(O)c3ccccc3S(=O)(=O)N2C)s1 [MELOXICAM] | 5.9
COc1ccc(O)c(C(C)(C)C)c1.COc1ccc(O)cc1C(C)(C)C [BUTYLATED HYDROXYANISOLE] | 6.2
O=C1NC(=O)C(c2ccccc2)(c2ccccc2)N1 [PHENYTOIN] | 6.1
CS(=O)(=O)Nc1ccc([N+](=O)[O-])cc1Oc1ccccc1 [NIMESULIDE] | 6

Now, please, on to the next molecule.
[in] Reported TP for O=C1CN(/N=C/c2ccc(-c3ccc([N+](=O)[O-])cc3)o2)C(O)=N1 [DANTROLENE] : what is it?
[out] 6.1

###

molecules and their reported TC
species on record: Rattus norvegicus; assay: Open TG-GATES - Regimen: Single; format: toxicity, organism-based, Sprague-Dawley; set-up: regimen Single, gender Male, age 6 weeks; conditions: in vivo, po, 0 mg/kg, 6 h, tissue Plasma, route gavage, dose level Control
Dear colleague, please send the value followed by its unit.

// worked examples, TC included
S=C=Nc1cccc2ccccc12 [1-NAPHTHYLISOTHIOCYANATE] | 76.2 mg/dL
O=C1CN(/N=C/c2ccc(-c3ccc([N+](=O)[O-])cc3)o2)C(O)=N1 [DANTROLENE] | 79.8 mg/dL

[in] Reported TC for CS(=O)(=O)Nc1ccc([N+](=O)[O-])cc1Oc1ccccc1 [NIMESULIDE] : what is it?
[out] 83.2 mg/dL

[in] Reported TC for COc1ccc(Cl)cc1C(=O)NCCc1ccc(S(=O)(=O)NC(=O)NC2CCCCC2)cc1 [GLYBURIDE] : what is it?
[out] 77.2 mg/dL

[in] Reported TC for C=CCO [ALLYL ALCOHOL] : what is it?
[out] 74.8 mg/dL
